Target: AMP-activated protein kinase, AMPK (Homo sapiens) (UniProt P54646+O43741+P54619+Q9UGJ0+Q9Y478+Q13131+Q9UGI9)
Experiment: AMP-dependent Kinase enzyme assay. An in vitro enzyme assay that detects ADP turnover that is directly proportional to AMPK activity. This uses naive AMPK that is activated during the assay with MK-8722
Format: functional
Design: scale not given: direction of the effect not stated beside the values
Details: 30 µM
Experimental readout: Percent Effect (%)
Return type: number; implicit unit %.

Cc1cc(CN(C)c2nc(-c3ccco3)nc3c2CCN(C)CC3)on1 : 6.52
O=C(c1cnccn1)N1CCCC(C2=Nc3ccccc3S(=O)(=O)N2)C1 (centres undefined) : 22
c1c[nH]c(-c2cn(CCSc3cnn[nH]3)nn2)n1 : -8.05
Cn1nccc1-c1cncc(C2CCCN(S(C)(=O)=O)C2)n1 (centres undefined) : 22.7
NC(=O)COc1cccc(Cn2cccn2)c1 : -6.59
CCOC(=O)c1n[nH]cc1CN1CCOC(Cc2ccc(OC)cc2)C1 (centres undefined) : 2.27
CCc1ccc(CC)c(NCc2cnc(N3CCOCC3)nc2)c1 : -6.68
COc1ccccc1NC(=O)c1cnc(C2CCN(C(C)=O)C2)nc1C (centres undefined) : 5.26
CC(NCc1nnc2n1CCCC2)c1nc(Cc2ccccc2)no1 (centres undefined) : -1.56
CNc1nc(C(=O)N2CCn3nc(C(=O)OC)cc3C2)cs1 : -0.197

What value of Percent Effect has been recorded for this entry: COC1CCCOC12CCN(C(=O)NCc1ccco1)CC2 (centres undefined)
13

Suppose we examine the molecule O=C(c1cncc(NCC2COc3ccccc3C2)n1)N1CCOCC1 (centres undefined) ; what Percent Effect value has been reported?
7.56

Look up Percent Effect: Cc1cc(C[S+]([O-])Cc2ccccc2C)no1 (centres undefined)
5.62

Return reported Percent Effect; argument: Cn1ccc(N2CCCC(NC(=O)c3ccc(Cl)o3)C2=O)n1 (centres undefined)
3.82

* * *

Measured Percent Effect, listed per entry for reference.
Biological target: Sialic acid-binding Ig-like lectin 9 (Homo sapiens) (UniProt Q9Y336)
Sequence (Q9Y336 whole entry): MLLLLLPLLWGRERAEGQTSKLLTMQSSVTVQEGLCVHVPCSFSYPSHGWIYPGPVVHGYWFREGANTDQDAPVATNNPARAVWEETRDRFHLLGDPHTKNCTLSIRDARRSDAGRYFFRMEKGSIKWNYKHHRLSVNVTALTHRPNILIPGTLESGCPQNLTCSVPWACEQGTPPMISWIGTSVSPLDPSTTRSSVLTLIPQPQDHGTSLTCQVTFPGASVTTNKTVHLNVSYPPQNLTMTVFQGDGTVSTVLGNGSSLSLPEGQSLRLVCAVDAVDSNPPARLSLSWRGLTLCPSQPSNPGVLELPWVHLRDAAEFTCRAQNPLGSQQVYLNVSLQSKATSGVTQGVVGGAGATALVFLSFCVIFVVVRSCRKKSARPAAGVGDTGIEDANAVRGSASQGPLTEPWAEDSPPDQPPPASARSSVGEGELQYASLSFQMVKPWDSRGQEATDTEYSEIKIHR
Assay: Hs-Siglec9 ALPHAscreen SOP 20170721
Design: scale not given: direction of the effect not stated beside the values
Settings: 10 µM
Please append the unit to your numeric answer.

O=C(NCc1cc(O)ncn1)C1COc2ccccc2C1 (stereo not drawn) : 17.9%
CCc1nc(CN(C)C2CCN(CCNS(=O)(=O)CC)C2)no1 (stereo not drawn) : -3.88%
Cn1ccc(C(=O)NCc2cccc(N3CCCCC3=O)c2)cc1=O : 8.44%

Please turn your attention to the following entry.
Any idea what Percent Effect came out for Cc1cnn(CC2CN(CC(=O)N(C)c3nccs3)CCO2)c1 (stereo not drawn) on Sialic acid-binding Ig-like lectin 9 (Homo sapiens) (UniProt Q9Y336)?
4.67%

* * *

Quick reference for Percent Effect among some compounds
Target: Protein translocase subunit SecA (Escherichia coli (strain K12)) (UniProt P10408)
Sequence (P10408 whole entry): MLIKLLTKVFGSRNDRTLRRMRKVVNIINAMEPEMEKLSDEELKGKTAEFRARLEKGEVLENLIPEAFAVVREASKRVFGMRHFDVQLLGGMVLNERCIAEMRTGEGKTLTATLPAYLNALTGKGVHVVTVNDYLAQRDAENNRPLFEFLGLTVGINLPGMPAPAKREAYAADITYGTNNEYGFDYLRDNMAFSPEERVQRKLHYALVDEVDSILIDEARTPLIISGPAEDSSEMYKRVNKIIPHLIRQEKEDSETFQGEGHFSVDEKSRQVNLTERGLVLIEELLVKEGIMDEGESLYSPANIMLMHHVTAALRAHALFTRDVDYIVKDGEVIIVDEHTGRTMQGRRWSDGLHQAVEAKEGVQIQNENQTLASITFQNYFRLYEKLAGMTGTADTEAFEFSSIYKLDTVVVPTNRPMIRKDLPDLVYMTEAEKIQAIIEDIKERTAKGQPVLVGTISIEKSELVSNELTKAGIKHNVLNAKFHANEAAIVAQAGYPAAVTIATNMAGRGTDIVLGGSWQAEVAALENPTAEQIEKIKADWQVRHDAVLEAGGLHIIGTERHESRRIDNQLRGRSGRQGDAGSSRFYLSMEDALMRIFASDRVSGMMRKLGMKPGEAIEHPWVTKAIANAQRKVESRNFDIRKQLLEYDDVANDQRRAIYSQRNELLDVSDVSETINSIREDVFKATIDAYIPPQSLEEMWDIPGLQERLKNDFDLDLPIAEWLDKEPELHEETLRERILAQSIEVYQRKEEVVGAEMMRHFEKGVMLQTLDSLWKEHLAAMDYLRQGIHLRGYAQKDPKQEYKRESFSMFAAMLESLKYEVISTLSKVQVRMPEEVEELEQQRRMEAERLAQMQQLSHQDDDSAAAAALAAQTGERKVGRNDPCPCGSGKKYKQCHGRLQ
Test: Assay to Identify E. coli SecA ATPase Inhibitors
Assay type: functional
Set-up: scale not given: direction of the effect not stated beside the values
Conditions: 30 µM
Results with a measured potency or affinity are listed apart.
Give just the numeric value; % need not be written.

Study these solved cases before continuing.
Cc1cnn(CC2CCCN2C(=O)c2cc3c(F)cccc3[nH]2)c1 (stereo unspecified) : -2.09
Cn1cc(CN2CCCC23CCN(C(=O)c2cccn2C)CC3)cn1 : -1.03
Cn1cc(CN2CCCC3(CCCN3S(C)(=O)=O)C2)cn1 (stereo unspecified) : -3.74
Cc1cnn(CC2CCCN2C(=O)c2ccc(C(N)=O)cn2)c1 (stereo unspecified) : -5
CC(=O)N1N=C(c2ccccc2)OC1C(=O)NCCc1cccc(Cl)c1 (stereo unspecified) : 4.91

In the following, a different compound is considered.
I'd like to know its Percent Effect. The compound in question is CCNC(=O)[C@@H]1C[C@@H](NC(=O)c2cccnc2O)CN1Cc1ccsc1
-5.31

* * *

Molecular target: AMP-activated protein kinase, AMPK (Homo sapiens) (UniProt P54646+O43741+P54619+Q9UGJ0+Q9Y478+Q13131+Q9UGI9)
Test: AMP-dependent Kinase enzyme assay. An in vitro enzyme assay that detects ADP turnover that is directly proportional to AMPK activity. This uses naive AMPK that is activated during the assay with MK-8722
Format: functional
Set-up: scale not given: direction of the effect not stated beside the values
Settings: 30 µM
Experimental readout: Percent Effect (%)
Response body: numeric value in %, unit text excluded.

// solved cases for Percent Effect follow
CNC(=O)c1sc(C(NC(=O)c2ccccc2)C2CC2)nc1C (configuration not stated) : -1.61
Cc1cccc(Nc2noc3c2CN(C(=O)c2ccn(C)n2)CC3)c1C : 3.74
C[C@@H]1CN(c2cccnn2)CC[C@@]1(O)C1CCOCC1 : 2.06
CCc1ccc(CCn2cnc(C#N)n2)cc1 : -0.907
O=S(=O)(NCc1cn2ccccc2n1)N1CCOCC1 : 9.32

Quick check: Percent Effect of CNc1cc2c(nn1)CCN(C(=O)c1ccccc1-n1cccn1)C2 ?
-15.3

Any idea what Percent Effect was measured for CS(=O)(=O)CCN1CCSCC1c1ccc(Cl)cc1 (configuration not stated) ?
-2.02

Dear colleague, I am looking for the recorded Percent Effect of the following compound: Cc1ccc(OCC2CCCN(C(=O)c3csc(CN(C)C)n3)C2)cc1 (configuration not stated)
14.7

* * *

Biological target: AMP-activated protein kinase, AMPK (Homo sapiens) (UniProt P54646+O43741+P54619+Q9UGJ0+Q9Y478+Q13131+Q9UGI9)
Experiment: AMP-dependent Kinase enzyme assay. An in vitro enzyme assay that detects ADP turnover that is directly proportional to AMPK activity. This uses naive AMPK that is activated during the assay with MK-8722
Assay type: functional
Design: scale not given: direction of the effect not stated beside the values
Details: 30 µM
Percent Effect for assorted compounds
Return type: number; implicit unit %.

Some solved cases for reference:
CCc1nccn1CC1CCCN1S(=O)(=O)N1CCCOCC1 (stereo unspecified) : 15.2
NC(=O)CC1CCCN(c2cncc(OCc3ccccc3)n2)C1 (stereo unspecified) : 20.7
CCn1ncnc1C1CC(=O)NCc2nc(N3CCCC3)sc21 (stereo unspecified) : -10.2
COc1ncccc1-c1cc(C(=O)NC2CC2)ccn1 : -1.79
COc1ncc(NCc2ccc(C#N)cc2)cc1C(N)=O : 2.92

Now for a further compound.
Which measured Percent Effect value corresponds to COCc1ncc(CN2CCC3(CCC(=O)N(CC(C)O)C3)CC2)cn1 (stereo unspecified) ?
-3.44

* * *

Target: AMP-activated protein kinase, AMPK (Homo sapiens) (UniProt P54646+O43741+P54619+Q9UGJ0+Q9Y478+Q13131+Q9UGI9)
Assay: AMP-dependent Kinase enzyme assay. An in vitro enzyme assay that detects ADP turnover that is directly proportional to AMPK activity. This uses naive AMPK that is activated during the assay with MK-8722
Format: functional
Set-up: scale not given: direction of the effect not stated beside the values
Settings: 30 µM
Experimental readout: Percent Effect (%)
The answer is to be given in %; state only the numeric part.

GET /values?readout=Percent Effect&item= CCC1c2ccccc2CCN1CCNS(C)(=O)=O (stereo not given)
-4.87

Endpoint output: Percent Effect of O=S(=O)(NCCc1cn2ccccc2n1)N1CCOCC1 . Value?
3.56

Form field: reported Percent Effect of CC(C)c1nnc(CN2CC(n3cccn3)C2)o1
-4.54

Return reported Percent Effect; argument: COc1ccccc1OCCc1nnc(NC(=O)C2CC23CCC3)s1 (stereo not given)
8.73

Entry under review: Cc1cccc2nc(CN3CCC(N4CCN(C)C4=O)CC3)cn12 . Reported Percent Effect?
6.81

So what's the measured Percent Effect for this one? COC(=O)c1ccoc1CN(C)CC(=O)NC1CCS(=O)(=O)C1 (stereo not given)
-0.853

Find the recorded Percent Effect belonging to N#Cc1ncn(CC(=O)N2CCCC2c2cccs2)n1 (stereo not given) and report it.
-12

Return reported Percent Effect; argument: CN1CCCN(C[C@@H]2CN(c3nc(C(N)=O)cs3)C[C@@H]2CO)CC1
-0.955

Data request, read-out Percent Effect, for CN(CCSc1nncn1C(C)(C)C)c1ccccc1
16.1

Which Percent Effect is listed for N[C@H]1CN(S(=O)(=O)Cc2ccccc2)C[C@@H]1C1CC1 ?
-5.29

# lookup: Percent Effect of COCCN(C)c1cnn(C)c(=O)c1Br
-10.9

So what does the record say about Percent Effect for CC(C)N(C)S(=O)(=O)c1ccc2c(c1)CCN(C(=O)c1cscn1)C2 ?
-3.43

Which value of Percent Effect has been reported for CC1(C)CN(c2cc(C3CC3)ncn2)C[C@]1(C)O in the records?
30.7

* * *

Molecular target: AMP-activated protein kinase, AMPK (Homo sapiens) (UniProt P54646+O43741+P54619+Q9UGJ0+Q9Y478+Q13131+Q9UGI9)
Test: AMP-dependent Kinase enzyme assay. An in vitro enzyme assay that detects ADP turnover that is directly proportional to AMPK activity. This uses naive AMPK that is activated during the assay with MK-8722
Format: functional
Parameters: scale not given: direction of the effect not stated beside the values
Details: 30 µM
Experimental readout: Percent Effect (%)
Response body: numeric value in %, unit text excluded.

Solved entries:
CN(CCOc1ccc(C#N)cc1)CC1CC1 : 22.9
CC(C(=O)N1CCCC1)N1CCN(c2ncc(Cl)cn2)CC1 (stereo unspecified) : -1.02
Fc1ccc(C2(c3noc(CCN4CCCCO4)n3)CCOC2)cc1 (stereo unspecified) : 5.16
Cc1ccc(OCc2occc2C(=O)N2C[C@@H]3[C@@H](CN(C)C)[C@@H]3C2)cc1 : 14
COC(=O)c1ccc(N2CCN(C(=O)CCCc3cn[nH]c3)CC2)cc1 : 6

Attention now shifts to the item below.
Quick one: Percent Effect for Cc1nc(N(C)C)ncc1C(=O)N(Cc1ccncc1)CC1CCCO1 (stereo unspecified) ?
-6.01
